target: Neu1 sialidase (Mus musculus, UniProt O35657); construct: endogenous in cells; experiment: LPS-induced Neu1 sialidase activity in live RAW-blue macrophage cells (4MU-NeuAc fluorescence); details: LPS-induced sialidase activity on the cell surface of live RAW-blue macrophage cells; substrate 4MU-NeuAc; fluorescence at 1-2 min
pIC50: −log10 of the molar value.
parameter: pIC50

> print(dat)
                                   molecule  result.value
1  CC(=O)N[C@@H]1/C(=N/O)C=C(C(=O)O)[C@H]2OC(C)(C)O[C@H]21 [Compound 17]          7.90
2  CC(=O)N[C@@H]1C=C[C@@](O)(C(=O)O)[C@H]2OC(C)(C)O[C@@H]12 [Compound 16]          6.85
3  CC(=O)N[C@H]1[C@@H]2OC(C)(C)O[C@@H]2C(C(=O)O)=C[C@H]1O [Compound 19]          5.13

Each recorded value in this set is attributed to patent US8716333B2.
